Source listed as patent US10604509B2.

# Test system: NQO1 specific enzyme activity in BEAS-2B cells
# protocol-text: BEAS-2B NQO1 MTT assay
# Type: cell-based
# measurement-conditions: Homo sapiens, BEAS-2B, 48 h, BEAS-2B cells, 48 hours with compound, MTT readout; read-out: EC50 of NQO1 specific activity induction
Where a name gives a salt, the structure may show the parent alone.
Exercise: state measured EC50 for each of the compounds provided.

Exam item: Fill in the blank: the reported EC50 of Cc1ccc(C2(C)CN(Cc3cc(C(CC(=O)O)c4ccc5c(nnn5C)c4C)ccc3C)CCO2)cc1 (stereo not drawn) [Example 18, Formic Acid Salt] is ____.
Marked response: 1 to 10 µM

Exam item: Fill in the blank: the reported EC50 of Cc1ccc([C@H](c2ccc3c(nnn3C)c2C)C(C)(C)C(=O)O)cc1Cn1ccnc1CC1CCCCCC1 [Example 125, Sodium salt] is ____.
Marked response: 0.1 to 1 µM

Exam item: Fill in the blank: the reported EC50 of CCC1CCN(Cc2nccn2Cc2cc([C@@H](c3ccc4c(nnn4C)c3C)C(C)(C)C(=O)O)ccc2C)CC1 [Example 122, Sodium salt] is ____.
Marked response: 0.01 to 0.1 µM

Exam item: Fill in the blank: the reported EC50 of CCC1CCN(Cc2nccn2Cc2cc(C(CCc3cn(CC)nn3)C(C)C(=O)O)ccc2C)CC1 (single isomer, unassigned; isomer 1) is ____.
Marked response: 0.01 to 0.1 µM

Exam item: Fill in the blank: the reported EC50 of CC[C@@H]1CN(Cc2cc([C@H](CC(=O)O)c3ccc4c(nnn4C)c3C)ccc2F)Cc2ccncc2O1 is ____.
Marked response: 0.1 to 1 µM

Exam item: Fill in the blank: the reported EC50 of CC[C@@H]1CN(Cc2cc([C@@H](c3ccc4c(nnn4C)c3C)C(C)(C)C(=O)O)ccc2C)Cc2cncc(F)c2O1 is ____.
Marked response: < 0.001 µM

====

# Test system: NQO1 specific enzyme activity in BEAS-2B cells
# protocol-text: BEAS-2B NQO1 MTT assay
# Assay type: cell-based
# measurement-conditions: Homo sapiens, BEAS-2B, 48 h, BEAS-2B cells, 48 hours with compound, MTT readout; read-out: EC50 of NQO1 specific activity induction
pEC50: −log10 of the molar value. Structures can show the parent of a compound that is named as a salt.
reported-endpoint: pEC50

Exam item: Fill in the blank: the reported pEC50 of Cc1ccc([C@H](CC(=O)O)c2ccc3c(nnn3C)c2C)cc1CN1Cc2cc(F)ccc2OC(C)(C)C1 is ____.
Marked response: 7.00 to 8.00

Exam item: Fill in the blank: the reported pEC50 of CCC1Cc2c(F)cccc2CN(Cc2cc(C(c3ccc4c(nnn4C)c3C)C(C)(C)C(=O)O)ccc2C)C1 (centres unmarked) is ____.
Marked response: 8.00 to 9.00

Exam item: Fill in the blank: the reported pEC50 of Cc1ccc(C(CC(=O)O)c2ccc3c(nnn3C)c2C)cc1Cc1nnnn1CC1CCCCC1 (centres unmarked) [Example 134, hydrochloride salt] is ____.
Marked response: 6.00 to 7.00

Exam item: Fill in the blank: the reported pEC50 of CC[C@@H]1CN(Cc2cc([C@H](CC(=O)O)c3ccc4c(nnn4C)c3C)ccc2C)Cc2cnccc2O1 [Example 50, formic acid salt] is ____.
Marked response: 7.00 to 8.00

Exam item: Fill in the blank: the reported pEC50 of Cc1ncc(C(c2ccc3c(nnn3C)c2C)C(C)(C)C(=O)O)cc1Cn1ccnc1CC1CCCCCC1 (centres unmarked) [Example 214, Trifluoroacetic Acid Salt] is ____.
Marked response: 6.00 to 7.00

Exam item: Fill in the blank: the reported pEC50 of CC[C@@H]1CN(Cc2cc(C(Cc3nnn[nH]3)c3ccc4c(nnn4C)c3C)ccc2C)Cc2ccccc2O1 (some centres unmarked) [Example 112, Formic Acid Salt] is ____.
Marked response: 6.00 to 7.00

Exam item: Fill in the blank: the reported pEC50 of CC[C@@H]1CN(Cc2cc([C@H](c3ccc4c(nnn4C)c3C)C(C)(C)C(=O)O)ccc2C)Cc2ccccc2O1 is ____.
Marked response: 6.00 to 7.00

Exam item: Fill in the blank: the reported pEC50 of CCn1nnc2c(F)c([C@H](c3ccc(C)c(CN4Cc5ccccc5OC(C)(C)C4)c3)[C@@H](C)C(=O)O)ccc21 [Example 193, Sodium salt] is ____.
Marked response: 8.00 to 9.00

Exam item: Fill in the blank: the reported pEC50 of CCN1CCN(Cc2cc(C(c3ccc4c(nnn4C)c3C)C(C)(C)C(=O)O)ccc2C)Cc2ccccc21 (centres unmarked) [Example 111, Formic Acid Salt] is ____.
Marked response: 7.00 to 8.00

Exam item: Fill in the blank: the reported pEC50 of Cc1ccc([C@H](CC(=O)O)c2ccc3c(nnn3C)c2C)cc1CN1Cc2ccncc2OC(C)(C)C1 is ____.
Marked response: 5.00 to 6.00

Exam item: Fill in the blank: the reported pEC50 of CCC1CCN(Cc2nccn2Cc2cc([C@@H](c3ccc4c(nnn4C)c3C)C(C)(C)C(=O)O)ccc2Cl)CC1 is ____.
Marked response: > 9.00

Exam item: Fill in the blank: the reported pEC50 of CC[C@@H]1CN(Cc2cc(C(CCc3cn(CC)nn3)CC(=O)NS(C)(=O)=O)ccc2C)Cc2cnccc2O1 (some centres unmarked) is ____.
Marked response: 5.00 to 6.00

Exam item: Fill in the blank: the reported pEC50 of CC[C@@H]1CN(Cc2cc([C@H](c3ccc4c(nnn4C)c3C)[C@@H](C)C(=O)O)ccc2C)Cc2ccccc2O1 is ____.
Marked response: 7.00 to 8.00

Exam item: Fill in the blank: the reported pEC50 of Cc1ccc([C@H](CC(=O)O)c2ccc3c(nnn3C)c2C)cc1CN1Cc2ccccc2OC(C)(C)C1 [Example 109, Formic Acid Salt] is ____.
Marked response: 6.00 to 7.00

Exam item: Fill in the blank: the reported pEC50 of CC[C@@H]1CN(Cc2cc(C(c3ccc4c(c3)nnn4C)C(C)(C)C(=O)O)ccc2C)Cc2ccccc2O1 (some centres unmarked) is ____.
Marked response: > 9.00

Exam item: Fill in the blank: the reported pEC50 of Cc1ccc(C(c2ccc3c(nnn3C)c2C)C(C)(C)C(=O)O)cc1Cn1ccnc1CN1C2CCC1CC2 (centres unmarked) [Example 155, Trifluoroacetic Acid Salt] is ____.
Marked response: 7.00 to 8.00

Exam item: Fill in the blank: the reported pEC50 of CC[C@@H]1CN(Cc2cc(C(c3ccc4c(nnn4C)c3C)C(C)(C)C(=O)O)ccc2C)Cc2c(F)cccc2O1 (some centres unmarked) [Example 31, Formic Acid Salt] is ____.
Marked response: > 9.00

Exam item: Fill in the blank: the reported pEC50 of CC[C@@H]1CN(Cc2cc(C(CC(=O)O)c3cc(OC)c4c(nnn4C)c3C)ccc2C)Cc2ccccc2O1 (some centres unmarked) [Example 45, Formic Acid Salt] is ____.
Marked response: 6.00 to 7.00

Exam item: Fill in the blank: the reported pEC50 of Cc1ccc(C(c2ccc3c(nnn3C)c2C)C(C)(C)C(=O)O)cc1CN1CCCC(n2cccn2)C1 (centres unmarked) is ____.
Marked response: 6.00 to 7.00

Exam item: Fill in the blank: the reported pEC50 of CC[C@@H]1CN(Cc2cc(C(c3ccc(F)cc3C)C(C)(C)C(=O)O)ccc2C)Cc2ccccc2O1 (some centres unmarked) [Example 115, Formic Acid Salt] is ____.
Marked response: 5.00 to 6.00

Exam item: Fill in the blank: the reported pEC50 of CCC1CCN(Cc2nccn2Cc2cc([C@H](c3ccc4c(nnn4C)c3C)C(C)(C)C(=O)O)ccc2Cl)CC1 is ____.
Marked response: 8.00 to 9.00

Exam item: Fill in the blank: the reported pEC50 of Cc1ccc([C@H](CC(=O)O)c2ccc3c(nnn3C)c2C)cc1CN1CCCC(n2cccn2)C1 (single isomer, unassigned) is ____.
Marked response: 5.00 to 6.00

Exam item: Fill in the blank: the reported pEC50 of CCCn1cc(CCC(CC(=O)O)c2ccc(C)c(CN3CCCC(n4cccn4)C3)c2)nn1 (centres unmarked) [Example 163, Formic Acid Salt] is ____.
Marked response: 5.00 to 6.00

Exam item: Fill in the blank: the reported pEC50 of Cc1ccc(C(CC(=O)O)c2ccc3c(nnn3C)c2C)cc1Cn1ccnc1CN1CCCC1 (centres unmarked) [Example 153, Formic Acid Salt] is ____.
Marked response: 5.00 to 6.00

Exam item: Fill in the blank: the reported pEC50 of CC[C@@H]1CN(Cc2cc([C@@H](CC(=O)O)c3ccc4c(nnn4C)c3C)ccc2C)Cc2cnccc2O1 [Example 43, Formic Acid Salt] is ____.
Marked response: 5.00 to 6.00

Exam item: Fill in the blank: the reported pEC50 of CCC1CCN(Cc2nccn2Cc2cc(C(c3ccc4c(nnn4C)c3C)C(C)(C)C(=O)O)ccc2C)CC1 (centres unmarked) [Example 140, formic acid salt] is ____.
Marked response: 5.00 to 6.00
